These data points were gathered from ChEMBL document CHEMBL1201862.

- Tested on: SF-295
- assayMethodText: NCI tumour cell line growth inhibition, 48 h
Calls of active or inactive are those of the source. Cut-off read from the data, not from the text of the source: active = GI50 up to about 1.1 µM and inactive = higher.
Assign a class; possible classes are TRUE (active), FALSE (inactive)

Please share the test call associated with `O=C(NCCCNC(=O)c1ccc2c(O)c(O)ccc2c1)c1ccc2c(O)c(O)ccc2c1` .
FALSE

Please share the test call associated with `C[Si](C)(C)CCOCN(C(=O)C1=CCC2(CC1)OCCO2)c1ccccc1I` .
FALSE

Please share the test call associated with `CC1(C)C=C(/C=N/Nc2ccc(Br)cc2)C(C#N)=C(O)C1(C#N)C#N` .
FALSE

Please share the test call associated with `CCCC(=O)Nc1ccc2c(c1)CN1C(=O)c3ccccc3C1=N2` .
FALSE

Please share the test call associated with COc1cc2c(cc1OC)-c1cc3ccc(OC)c(OC)c3c[n+]1CC2 [PALMATINE CHLORIDE] .
FALSE

Please share the test call associated with `COc1ccc(N2CC(=O)N(C(=O)COc3ccc(OCC(=O)N4C(=O)CN(c5ccc(OC)cc5)C4=S)cc3)C2=S)cc1` .
FALSE

Please share the test call associated with `Nn1c(Nc2ccc(S(N)(=O)=O)cc2)nnc(/C=C/c2c(O)ccc3ccccc23)c1=O` .
FALSE

Please share the test call associated with `Cc1c2c(c(C)n1-c1ccccc1)C(=O)N(CCCCN1CCN(c3ccccc3)CC1)C2=O` .
FALSE

Please share the test call associated with `O=C1c2cccc3cc4ccccc4c(c23)C(=O)N1CCNCCN1C(=O)c2cccc3cc4ccccc4c(c23)C1=O` .
TRUE

Please share the test call associated with CCC1OC(=O)C(C)C(OC2CC(C)(O)C(O)C(C)O2)C(C)C(O)C(C)(O)CC(C)C(=O)C(C)C(O)C1C (configuration not stated) .
FALSE

Please share the test call associated with COC(=O)CC(CNC(=O)OCc1ccccc1)OCc1ccc(OC)cc1 (configuration not stated) .
FALSE

Please share the test call associated with CC(C)Cc1ccc(C(C)CC2=CCC(CN(C)C)C2=O)cc1 (configuration not stated) .
FALSE
